Below, each of the molecules is paired with its reported z-score value.
Assay: A549 lung cancer cell viability effects, profiling panel, resazurin fluorescence, 24 h, PK04 Diversity Set (AID 1171); also: test concentration not given here
Settings: higher = more signal, called active from +8 up or from −8 down
// print number alone

Some molecules with recorded z-score:
COCC(=C=CC[C@@H](O)c1cccc(OCCO)c1)C[C@@H](O)c1ccccn1
0.391
CCCC[C@@H]1C[C@H]1[C@@H](NC(=O)C(C)(C)C)c1ccc(C(F)(F)F)cc1
0.419
COC(=O)[C@H](Cc1ccccc1)N1CC2=C[C@@H](C3CC3)n3c(=O)n(C)c(=O)n3[C@H]2[C@@H]1[C@@H](O)Cc1ccccc1
0.138

Please look at the following molecule next.
The reported value for C=CCN1C(=O)[C@]2(O[C@H](CCn3cc([C@H](O)c4ccccc4)nn3)[C@@H]([Si](C)(C)c3ccc(OC)cc3)[C@@H]2C)c2ccccc21 in terms of z-score is -1.75

----------
Target: Left-right determination factor 2 (Homo sapiens)
Assay: LEFTY2 binders on small-molecule microarrays, primary screen, biochemical, small-molecule microarray, 635 nm fluorescence scan (AID 1110)
Conditions: LEFTY2 binding, higher = more signal
molecules and their reported composite z-score

COC(=O)[C@@]1(Cc2ccc(F)cc2)[C@H]2c3cc(C(=O)N4CCCC4)n(Cc4ccc(S(C)(=O)=O)cc4)c3C[C@H]2CN1C(=O)c1ccccc1
0.533
[N-]=[N+]=Nc1ccccc1[C@H]1OC(c2ccc(OCCCO)cc2)=N[C@@]1(CCS(=O)(=O)c1ccccc1)C(=O)NCC(O)CO (stereo not given in full)
-0.671
COCCOC(=O)N1C(=O)[C@@]2(c3cc(C#CCCO)ccc31)[C@H](C(N)=O)[C@H]1C(=O)O[C@H](c3ccccc3)[C@H](c3ccccc3)N1[C@@H]2c1ccc(O)cc1
-0.142
CCc1cccc(NC(=O)O[C@H]2[C@H](OC(=O)Nc3ccccc3-c3ccccc3)[C@@H](OC(=O)Nc3ccccc3-c3ccccc3)[C@@H](OC)O[C@@H]2CO)c1
0.3
O=C1N(Cc2ccccc2)c2ccccc2[C@@H]2OC(c3ccc(OCCCO)cc3)=N[C@]12CCS(=O)(=O)c1ccccc1
0.274

Lab note: measured composite z-score of CCOC(=O)[C@H]1C/C=C/C[C@H](C(=O)OCC)C(=O)O[C@H]2[C@@H](OC)O[C@H](CO)[C@@H](OC(=O)c3c(OC)cccc3OC)[C@@H]2OC1=O was 0.204

Notebook: CC(C)N1C(=O)c2ccccc2[C@](C)(C(=O)NCCN2CCOCC2)[C@@H]1c1ccc(CO)cc1 , composite z-score read as -1.03

The molecule C=C(C)[C@@H]1CC=C(C(O)C2C=CC3C(=O)N(C)C(=O)C3N2Nc2ccccc2)CC1 (stereo not given in full) showed composite z-score equal to 0.658

Per the record, C=CC1(C(=O)OC)CC=C(C(=O)OC)CC1 (stereo not given) has composite z-score of 1.24

For reference, reported composite z-score for CN(C)C(=O)[C@]1(Cc2ccccc2N=[N+]=[N-])N=C(c2ccc(OCCCO)cc2)O[C@@H]1c1ccccc1N=[N+]=[N-] stands at 0.116

----------
Test: E. coli acrAB mutant growth effects, primary screen, E. coli filamentation inducers, strain DRC39, OD650, 24 h (AID 1178);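 also: growth measured as culture turbidity by optical density at 650 nm; test concentration not given here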
Conditions: higher = more signal, called active from +8 up or from −8 down
Attribute Measured: z-score
Lab note: jot the number down without any unit.

Answered examples (6):
COC(=O)C(CC#Cc1ccc2c(c1)[C@]1(C(=O)N2)[C@H](c2ccc(OCCO)cc2)N2[C@H](c3ccccc3)[C@H](c3ccccc3)OC(=O)[C@H]2[C@@H]1C(=O)N1CCc2cc(OC)c(OC)cc2C1)C(=O)OC
0.242
O=C1C[C@@](C(=O)NCC(F)(F)F)(c2ccc([N+](=O)[O-])cc2)[C@@H](c2ccc(CO)cc2I)N1C1CCCCC1
-0.218
CCOC(=O)C[C@H]1[C@H](OC(=O)c2ccc(C(=O)c3ccccc3)cc2)[C@@H](NC(=O)c2ccc3ccccc3c2)c2cc(OCCCO)ccc2N1C(=O)Cc1ccc(OC)cc1
-0.276
CC(C)OC(=O)C=C1C[C@@H](c2ccccn2)O[C@@H](c2ccccn2)O1
-0.471
CN(C)CCCC[C@@H]1NC(=O)[C@H]2C[C@@H](C(=O)NCCCCCCN)[C@@H](c3ccc(O)cc3)N2C1=O
0.332
COCCOC(=O)N1C(=O)[C@@]2(c3cc(C#CCCO)ccc31)[C@H](C(=O)N1CCCCCCC1)[C@H]1C(=O)O[C@H](c3ccccc3)[C@H](c3ccccc3)N1[C@@H]2c1ccc(OCCO)cc1
-0.0574

Quick note, z-score for CC(C)[Si](C#Cc1ccc(Oc2ccccc2)cc1)(O[Si](C#Cc1ccc(Oc2ccccc2)cc1)(C(C)C)C(C)C)C(C)C landed at 0.879

// CC(C)C(=C=CC[C@H](O)c1ccc(OCCO)cc1)CCO : z-score value = -0.732
